Where do these numbers come from? They come from ChEMBL document CHEMBL4138103.

Tested on: Rattus norvegicus
test_summary: In vivo neurogenic activity in Sprague-Dawley rat neural progenitor cells at 4 mg/kg, ip qd pretreated for 28 days followed by BrdU addition at 2 hrs interval for twice on day 29 measured after 24 hrs by BrdU incorporation assay relative to control
Format: functional
measured_attribute: fold change (FC)

fold change (FC) lookup needed for O=C(Nc1ccc(/C=C/c2ccc3c(c2)OCO3)cc1)c1ccccc1 , thanks. 2.2 - 3.5

Then what about the molecule O=C(Nc1ccc(/C=C/c2ccc3c(c2)OCO3)cc1)C1CC1 ? 2.2 - 3.5

Please do the same for CC(C)C(=O)Nc1ccc(/C=C/c2ccc3c(c2)OCO3)cc1 as well. 2.2 - 3.5

Okay, and CS(=O)(=O)Nc1ccc(/C=C/c2ccc3c(c2)OCO3)cc1 ? 2.2 - 3.5
